# CC50 at 48 h values compiled below
# methodDescription: Cytotoxicity against dog MDCK cells assessed as cell viability measured after 48 hrs by CCK-8 assay
# Assay type: toxicity, cell-based, Canis lupus familiaris
outcomeMeasure: CC50 at 48 h (µM)

chemicalStructure: O=C1c2c(O)c(=O)ccn2N([C@H](c2cc(F)c(F)c(F)c2)c2cccs2)[C@@H]2COCCN12
displayUnit: µM
censoringSign: =
reportedResult: 26
//
chemicalStructure: O=C1c2c(O)c(=O)ccn2N([C@@H](c2ccc(F)c(F)c2)c2cc3ccccc3s2)[C@@H]2COCCN12
displayUnit: µM
censoringSign: >
reportedResult: 50
//
chemicalStructure: O=C1c2c(O)c(=O)ccn2N([C@H](c2ccc(Cl)c(Cl)c2)c2cccs2)[C@@H]2COCCN12
displayUnit: µM
censoringSign: =
reportedResult: 12.1
//
chemicalStructure: O=C1c2c(O)c(=O)ccn2N([C@@H](c2ccc3ccccc3c2)c2cccs2)[C@@H]2COCCN12
displayUnit: µM
censoringSign: =
reportedResult: 40.6
//
chemicalStructure: O=C1c2c(O)c(=O)ccn2N([C@H](c2ccccc2)c2cccs2)[C@@H]2COCCN12
displayUnit: µM
censoringSign: >
reportedResult: 50
//
chemicalStructure: O=C1c2c(O)c(=O)ccn2N([C@H](c2cccs2)c2cc(F)c(F)c(F)c2F)[C@@H]2COCCN12
displayUnit: µM
censoringSign: >
reportedResult: 50
//
chemicalStructure: O=C1c2c(O)c(=O)ccn2N([C@@H](c2ccc(F)c(F)c2)c2ccc(Br)s2)[C@@H]2COCCN12
displayUnit: µM
censoringSign: =
reportedResult: 19.7
//
chemicalStructure: O=C1c2c(O)c(=O)ccn2N([C@@H](c2ccc(F)c(F)c2)c2ccc(Cl)s2)[C@@H]2COCCN12
displayUnit: µM
censoringSign: =
reportedResult: 19.4

---

The following compounds are shown together with reported CLint scaled values.
# methodDescription: Metabolic stability in mouse liver microsomes assessed as intrinsic clearance measured up to 60 mins by LC-MS/MS analysis
# Assay type: ADME, Microsome
# condition: read-out: CLH

compound: O=C1c2c(O)c(=O)ccn2N([C@@H](c2ccc(F)cc2)c2cccs2)[C@@H]2COCCN12
CLint scaled [mL/min/kg]: 3.96
//
compound: O=C1c2c(O)c(=O)ccn2N([C@@H](c2ccc(F)c(F)c2)c2cccs2)[C@@H]2COCCN12
CLint scaled [mL/min/kg]: 2.38
//
compound: O=C(O)Cc1ccccc1Nc1c(Cl)cccc1Cl [DICLOFENAC]
CLint scaled [mL/min/kg]: 136
//
compound: O=C1c2c(O)c(=O)ccn2N([C@H](c2ccc(F)c(F)c2)c2cccs2)[C@@H]2COCCN12
CLint scaled [mL/min/kg]: 11.9

---

# methodDescription: Selectivity index, ratio of CC50 for dog MDCK cells to EC50 for antiviral activity against influenza strain A/WSN/1933 (H1N1) infected in MDCK cells
# Assay type: toxicity, cell-based
# condition: read-out: Selectivity Index
Overview of reported selectivity ratio across a group of compounds:
outcomeMeasure: selectivity ratio

chemicalStructure: O=C1c2c(O)c(=O)ccn2N([C@H](c2ccc(F)c(F)c2)c2ccc(Br)s2)[C@@H]2COCCN12
censoringSign: =
reportedResult: 353
--
chemicalStructure: O=C1c2c(O)c(=O)ccn2N([C@@H](c2cc(F)c(F)c(F)c2)c2cccs2)[C@@H]2COCCN12
censoringSign: >
reportedResult: 5350
--
chemicalStructure: O=C1c2c(O)c(=O)ccn2N([C@@H](c2ccc(F)c(F)c2)c2cc3ccccc3s2)[C@@H]2COCCN12
censoringSign: >
reportedResult: 1180
--
chemicalStructure: O=C1c2c(O)c(=O)ccn2N([C@@H](c2ccc(F)c(F)c2)c2ccc(Br)s2)[C@@H]2COCCN12
censoringSign: =
reportedResult: 652
--
chemicalStructure: O=C1c2c(O)c(=O)ccn2N([C@H](c2ccc(F)c(F)c2)c2cccs2)[C@@H]2COCCN12
censoringSign: =
reportedResult: 3140
--
chemicalStructure: O=C1c2c(O)c(=O)ccn2N([C@H](c2ccc(F)c(F)c2)c2cc3ccccc3s2)[C@@H]2COCCN12
censoringSign: >
reportedResult: 2400
--
chemicalStructure: O=C1c2c(O)c(=O)ccn2N([C@H](c2ccc(Cl)c(Cl)c2)c2cccs2)[C@@H]2COCCN12
censoringSign: =
reportedResult: 215
--
chemicalStructure: O=C1c2c(O)c(=O)ccn2N([C@@H](c2ccc(F)c(F)c2)c2ccc(Cl)s2)[C@@H]2COCCN12
censoringSign: =
reportedResult: 663
--
chemicalStructure: Cc1ccc([C@H](c2cccs2)N2[C@@H]3COCCN3C(=O)c3c(O)c(=O)ccn32)cc1C
censoringSign: =
reportedResult: 429
--
chemicalStructure: O=C1c2c(O)c(=O)ccn2N([C@@H](c2ccc(F)c(F)c2)c2ccc(-c3ccccc3)s2)[C@@H]2COCCN12
censoringSign: =
reportedResult: 1100
--
chemicalStructure: O=C1c2c(O)c(=O)ccn2N([C@H](c2cc(F)c(F)c(F)c2)c2cccs2)[C@@H]2COCCN12
censoringSign: =
reportedResult: 13600
--
chemicalStructure: O=C1c2c(O)c(=O)ccn2N([C@@H](c2cccs2)c2cc(F)c(F)c(F)c2F)[C@@H]2COCCN12
censoringSign: >
reportedResult: 8860
--
chemicalStructure: O=C1c2c(O)c(=O)ccn2N([C@H](c2ccc(F)c(F)c2)c2ccc(Cl)s2)[C@@H]2COCCN12
censoringSign: =
reportedResult: 1510
--
chemicalStructure: O=C1c2c(O)c(=O)ccn2N([C@H](c2ccc3ccccc3c2)c2cccs2)[C@@H]2COCCN12
censoringSign: =
reportedResult: 752
--
chemicalStructure: Cc1ccc([C@@H](c2cccs2)N2[C@@H]3COCCN3C(=O)c3c(O)c(=O)ccn32)cc1C
censoringSign: =
reportedResult: 4190
--
chemicalStructure: O=C1c2c(O)c(=O)ccn2N([C@@H](c2ccc(F)c(F)c2)c2cccs2)[C@@H]2COCCN12
censoringSign: =
reportedResult: 18200

---

# methodDescription: Tmax in CD-1 mouse at 15 mg/kg, po measured up to 24 hrs by LC-MS/MS analysis
# Assay type: ADME, organism-based
# condition: in vivo

chemicalStructure: O=C1c2c(O)c(=O)ccn2N([C@@H](c2ccc(F)c(F)c2)c2cccs2)[C@@H]2COCCN12
Tmax [min]: 25.2

---

# System: Influenza A virus
# methodDescription: Antiviral activity against influenza strain A/Aichi/ 2/1968 (H3N2) infected in MDCK cells assessed as reduction of virus-induced cytopathic effect measured after 2 days incubation
# Assay type: functional, organism-based
# condition: 48 h
Each entry below carries its reported EC50.
outcomeMeasure: EC50 (nM)

chemicalStructure: O=C1c2c(O)c(=O)ccn2N([C@H](c2ccc(Cl)c(Cl)c2)c2cccs2)[C@@H]2COCCN12
testSystem: Influenza A virus
reportedResult: 13

chemicalStructure: O=C1c2c(O)c(=O)ccn2N([C@@H](c2ccc(F)c(F)c2)c2ccc(-c3ccccc3)s2)[C@@H]2COCCN12
testSystem: Influenza A virus
reportedResult: 11.1

chemicalStructure: O=C1c2c(O)c(=O)ccn2N([C@@H](c2cccc(F)c2)c2cccs2)[C@@H]2COCCN12
testSystem: Influenza A virus
reportedResult: 15.2

chemicalStructure: O=C1c2c(O)c(=O)ccn2N([C@H](c2ccc(F)c(F)c2)c2ccc(-c3ccccc3)s2)[C@@H]2COCCN12
testSystem: Influenza A virus
reportedResult: 3.75

---

# methodDescription: Cytotoxicity against dog MDCK cells assessed as cell viability measured after 48 hrs by CCK-8 assay
# Type: toxicity, cell-based, Canis lupus familiaris

chemicalStructure: Cc1ccc([C@@H](c2cccs2)N2[C@@H]3COCCN3C(=O)c3c(O)c(=O)ccn32)cc1C
censoringSign: =
CC50 at 48 h [µM]: 28

chemicalStructure: O=C1c2c(O)c(=O)ccn2N([C@@H](c2ccc(F)c(F)c2)c2cccs2)[C@@H]2COCCN12
censoringSign: =
CC50 at 48 h [µM]: 34.2

chemicalStructure: O=C1c2c(O)c(=O)ccn2N([C@H](c2cccc(F)c2)c2cccs2)[C@@H]2COCCN12
censoringSign: =
CC50 at 48 h [µM]: 34.3

chemicalStructure: Cc1ccc([C@H](c2cccs2)N2[C@@H]3COCCN3C(=O)c3c(O)c(=O)ccn32)cc1C
censoringSign: =
CC50 at 48 h [µM]: 20.5

chemicalStructure: O=C1c2c(O)c(=O)ccn2N([C@@H](c2cccc(F)c2)c2cccs2)[C@@H]2COCCN12
censoringSign: >
CC50 at 48 h [µM]: 50

chemicalStructure: O=C1c2c(O)c(=O)ccn2N([C@@H](c2ccccc2)c2cccs2)[C@@H]2COCCN12
censoringSign: >
CC50 at 48 h [µM]: 50

chemicalStructure: O=C1c2c(O)c(=O)ccn2N([C@H](c2ccc3ccccc3c2)c2cccs2)[C@@H]2COCCN12
censoringSign: =
CC50 at 48 h [µM]: 17.2

---

# methodDescription: MRT (0 to infinity) in CD-1 mouse at 15 mg/kg, po measured up to 24 hrs by LC-MS/MS analysis
# Assay type: ADME, organism-based
# condition: in vivo

chemicalStructure: O=C1c2c(O)c(=O)ccn2N([C@@H](c2ccc(F)c(F)c2)c2cccs2)[C@@H]2COCCN12
MRT inf: 2.77 h
